Each recorded value in this set is attributed to the array DNA melting data of Ke et al. (doi:10.1101/2024.01.08.574731).

# protocol notes: folding enthalpy; higher = less favourable; fluorescence melt of hairpins on a sequencing array, two-state fit
# test parameters: sodium 0.088 M
value type: folding enthalpy (kcal/mol)
Write it as a number; the unit kcal/mol goes unstated.

*Q* # get_value(readout='folding enthalpy', item= GCGTCGCCACGC ((((....)))) )
*A* -15.9

*Q* # get_value(readout='folding enthalpy', item= CGTGCGGAAACGCATACG ((((((....)))..))) )
*A* -15.4

*Q* # get_value(readout='folding enthalpy', item= GTACACGGAAACGTATAC (((.(((....))).))) )
*A* -23.8

*Q* # get_value(readout='folding enthalpy', item= GTGTAAGCGAAAGCTCAC (((..(((....)))))) )
*A* -19.3

*Q* # get_value(readout='folding enthalpy', item= GAAGGCGAAAGCCGTTTC ((((((....)))..))) )
*A* -10.9

*Q* # get_value(readout='folding enthalpy', item= GCCTCCGAAAGGAATGGC ((((((....)))..))) )
*A* -23

*Q* # get_value(readout='folding enthalpy', item= GCATGCGAAAGCAGATGC ((((((....)))..))) )
*A* -24.6

*Q* # get_value(readout='folding enthalpy', item= CGGGGGAAACCCCG (((((....))))) )
*A* -21.8

*Q* # get_value(readout='folding enthalpy', item= GCTGTGACGAAAGTCAGC (((..(((....)))))) )
*A* -15.1

*Q* # get_value(readout='folding enthalpy', item= CGTCCCGGAAACGGTACG (((.(((....))).))) )
*A* -29.1

*Q* # get_value(readout='folding enthalpy', item= GCTTTCGAAAGAAAGAGC ((((((....)))..))) )
*A* -19.7

*Q* # get_value(readout='folding enthalpy', item= GCCACGGGAAACCATGGC ((((.((....)).)))) )
*A* -47.8

----------
# protocol notes: melting temperature; fluorescence melt of hairpins on a sequencing array, two-state fit, raised by 9.35 °C to match UV melts
# test parameters: sodium 0.088 M
Record form. Attribute: Tm. Fill in for each entry.
Write it as a number; the unit °C goes unstated.

*Q* # get_value(readout='Tm', item= GGGCCAGCGAAAGCTCCC (((..(((....)))))) )
*A* 40.3

*Q* # get_value(readout='Tm', item= GGTGCCGAAAGGCACACC ((((((....)))..))) )
*A* 58

*Q* # get_value(readout='Tm', item= GCGACAACTCGC ((((....)))) )
*A* 41.7

*Q* # get_value(readout='Tm', item= GTGAAGACGAAAGTCCAC (((..(((....)))))) )
*A* 41.6

*Q* # get_value(readout='Tm', item= GGATTGCCGAAAGGCTCC (((..(((....)))))) )
*A* 37.6

*Q* # get_value(readout='Tm', item= GATCAACGATTTGATC ((((((....)))))) )
*A* 39.3

----------
# protocol notes: melting temperature; fluorescence melt of hairpins on a sequencing array, two-state fit, raised by 9.35 °C to match UV melts
# test parameters: sodium 0.088 M
Record form. Attribute: Tm. Fill in for each entry.
Write it as a number; the unit °C goes unstated.

*Q* # get_value(readout='Tm', item= GCTAAGTCGAAAGACAGC (((..(((....)))))) )
*A* 41.2

*Q* # get_value(readout='Tm', item= GCATCGGGAAACCGACGC ((.((((....)))).)) )
*A* 50.4

*Q* # get_value(readout='Tm', item= GCTGAAGGAAACTCCAGC ((((.((....)).)))) )
*A* 40.7

*Q* # get_value(readout='Tm', item= TCCTCGAAAGAGGA (((((....))))) )
*A* 52.7

*Q* # get_value(readout='Tm', item= GTAGCTGGAAACAGTTAC (((.(((....))).))) )
*A* 42.8

*Q* # get_value(readout='Tm', item= GATCGAGAGTCGATC ((((((...)))))) )
*A* 49.4

----------
# protocol notes: melting temperature; fluorescence melt of hairpins on a sequencing array, two-state fit, raised by 9.35 °C to match UV melts
# test parameters: sodium 0.088 M
API: label(entry) gives condition met if the entry's Tm is strictly smaller than 50 °C; on equality or larger values it gives condition not met.

*Q* Check if Tm falls below 50 °C for GCGTACGAAAGTAAACGC ((((((....)))..))) .
*A* condition not met

*Q* Check if Tm falls below 50 °C for GACACTGAAAAGTGTC ((((((....)))))) .
*A* condition not met

*Q* Check if Tm falls below 50 °C for GCCTACGGAAACACAGGC ((((..(....)..)))) .
*A* condition met

*Q* Check if Tm falls below 50 °C for GACCGCGAAAGCGCAGTC ((((((....)))..))) .
*A* condition met

*Q* Check if Tm falls below 50 °C for GATCCTGGATAGGATC ((((((....)))))) .
*A* condition not met

*Q* Check if Tm falls below 50 °C for GCGCAAGGAAACTCACGC (((..((....))..))) .
*A* condition met

*Q* Check if Tm falls below 50 °C for GATCGACCCTCGATC ((((((...)))))) .
*A* condition not met

*Q* Check if Tm falls below 50 °C for GTATCGAAAGATAC (((((....))))) .
*A* condition not met

*Q* Check if Tm falls below 50 °C for CGCTAACGGAAACGTGCG (((..(((....)))))) .
*A* condition met

*Q* Check if Tm falls below 50 °C for GTGGTTGGAAACAATCGC (.(.(((....))).).) .
*A* condition met

*Q* Check if Tm falls below 50 °C for GTCGGTCGAAAGACGAC (((.(((....)))))) .
*A* condition not met

*Q* Check if Tm falls below 50 °C for GGAACCCGAAAGGGGTCC (((.(((....))).))) .
*A* condition not met

*Q* Check if Tm falls below 50 °C for GTGTCTGGAAACAGACGC (.(((((....))))).) .
*A* condition not met

*Q* Check if Tm falls below 50 °C for GATCAGACTCCTGATC ((((((....)))))) .
*A* condition met

*Q* Check if Tm falls below 50 °C for CGTACGGAAACGTGCACG ((((((....)))..))) .
*A* condition met

*Q* Check if Tm falls below 50 °C for GTCTACGAAAGTAACGAC ((((((....)))..))) .
*A* condition met

*Q* Check if Tm falls below 50 °C for GGGAGTGGAAACATTCCC ((((.((....)).)))) .
*A* condition met

*Q* Check if Tm falls below 50 °C for GTCTTCGAAAGAAGAGAC ((((((....)))..))) .
*A* condition met

*Q* Check if Tm falls below 50 °C for GCACACGAAAGTGGTTGC ((((((....)))..))) .
*A* condition met

*Q* Check if Tm falls below 50 °C for GGTCGTCCGAAAGGAACC (((..(((....)))))) .
*A* condition met

*Q* Check if Tm falls below 50 °C for TCCGAGAAATCGGA (((((....))))) .
*A* condition met

*Q* Check if Tm falls below 50 °C for GTAGATGGAAACATCTAC (((((((....))))))) .
*A* condition not met

----------
# protocol notes: folding enthalpy; higher = less favourable; fluorescence melt of hairpins on a sequencing array, two-state fit
# test parameters: sodium 0.088 M
Label fulfilled when folding enthalpy is at or above -20 kcal/mol; anything below gets not fulfilled.

*Q* Reported folding enthalpy reaches at least -20 kcal/mol for GTCCACCGAAAGGTCGAC (((.(((....))).))) ?
*A* not fulfilled

*Q* Reported folding enthalpy reaches at least -20 kcal/mol for GATCGCAACTGCGATC ((((((....)))))) ?
*A* not fulfilled

*Q* Reported folding enthalpy reaches at least -20 kcal/mol for GGCTGCGGAAACGCGGTC (.(.(((....))).).) ?
*A* not fulfilled

*Q* Reported folding enthalpy reaches at least -20 kcal/mol for GCATTCGAAAGAAGTGC ((((((....))).))) ?
*A* not fulfilled

*Q* Reported folding enthalpy reaches at least -20 kcal/mol for GTATTAGGAAACCAATAC (((((.(....).))))) ?
*A* fulfilled

*Q* Reported folding enthalpy reaches at least -20 kcal/mol for GCTCGCGAAAGCGGCAGC ((((((....)))..))) ?
*A* fulfilled

*Q* Reported folding enthalpy reaches at least -20 kcal/mol for GGTGGCGAAAGCCCCACC ((((((....)))..))) ?
*A* fulfilled

*Q* Reported folding enthalpy reaches at least -20 kcal/mol for GCCAGAGGAAACTCTGGC (((((((....))))))) ?
*A* not fulfilled

*Q* Reported folding enthalpy reaches at least -20 kcal/mol for GCCGCTGGAAACAGTGGC (((.(((....))).))) ?
*A* not fulfilled

*Q* Reported folding enthalpy reaches at least -20 kcal/mol for GATCAAGAGATTGATC ((((((....)))))) ?
*A* not fulfilled
